Numbers sourced from the supplement of paper PMC8728848.

# assayed target: GalNAc(b1-4)Gal(b1-4)Glc
# experimental details: glycan array binding signal (z-score within array); higher = stronger binding
# test settings: glycan notation: IUPAC condensed, linker removed
Only a selection was taken, and the strongest signals are over-represented in it overall.
Can you tell me glycan array binding signal (z-score) for the items I'm about to list?
Give the figure only, with no unit attached.

Query string: # input binder: Pwp5 ND (Candida glabrata) (protein) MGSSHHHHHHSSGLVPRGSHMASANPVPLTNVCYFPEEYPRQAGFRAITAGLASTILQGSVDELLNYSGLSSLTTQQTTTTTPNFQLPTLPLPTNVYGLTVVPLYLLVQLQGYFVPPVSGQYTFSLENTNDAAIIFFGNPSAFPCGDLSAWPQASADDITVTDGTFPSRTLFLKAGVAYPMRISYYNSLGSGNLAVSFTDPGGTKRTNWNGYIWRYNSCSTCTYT ; wanted: its glycan array binding signal (z-score)
Result string: 0.779

Query string: Entry Eosinophil-derived neurotoxin (EDN) (Homo sapiens), P10153 (protein) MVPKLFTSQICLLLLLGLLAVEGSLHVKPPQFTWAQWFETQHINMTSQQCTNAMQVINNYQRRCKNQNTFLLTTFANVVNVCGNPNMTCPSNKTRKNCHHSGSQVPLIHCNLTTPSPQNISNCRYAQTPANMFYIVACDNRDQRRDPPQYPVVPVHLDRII : reported glycan array binding signal (z-score) = ?
Result string: -0.211

Query string: Which glycan array binding signal (z-score) value belongs to BIp1-His (Cryptococcus neoformans) (protein) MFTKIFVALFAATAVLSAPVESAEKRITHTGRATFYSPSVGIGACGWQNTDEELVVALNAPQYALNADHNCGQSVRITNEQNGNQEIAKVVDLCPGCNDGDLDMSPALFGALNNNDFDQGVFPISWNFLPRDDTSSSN ?
Result string: 0.482

Query string: GET /values?readout=glycan array binding signal (z-score)&item= RS2L (Ralstonia solanacearum), B5RXL5_RALSO (protein) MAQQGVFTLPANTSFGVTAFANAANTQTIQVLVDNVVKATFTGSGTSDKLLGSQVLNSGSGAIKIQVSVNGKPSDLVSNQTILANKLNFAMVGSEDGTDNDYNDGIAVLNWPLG
Result string: -0.247

Query string: Name the reported glycan array binding signal (z-score) value associated with the binder CBP21 (Serratia marcescens), O83009 (protein) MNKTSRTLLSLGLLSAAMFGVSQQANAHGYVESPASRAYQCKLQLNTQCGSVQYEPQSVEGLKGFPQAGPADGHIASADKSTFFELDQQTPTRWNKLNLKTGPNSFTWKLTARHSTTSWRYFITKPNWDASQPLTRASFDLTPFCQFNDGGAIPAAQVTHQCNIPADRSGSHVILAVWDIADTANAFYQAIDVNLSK
Result string: 1.03

Query string: Please look up its glycan array binding signal (z-score): Epa7 (Candida glabrata), Q6DTM6_CANGB (protein) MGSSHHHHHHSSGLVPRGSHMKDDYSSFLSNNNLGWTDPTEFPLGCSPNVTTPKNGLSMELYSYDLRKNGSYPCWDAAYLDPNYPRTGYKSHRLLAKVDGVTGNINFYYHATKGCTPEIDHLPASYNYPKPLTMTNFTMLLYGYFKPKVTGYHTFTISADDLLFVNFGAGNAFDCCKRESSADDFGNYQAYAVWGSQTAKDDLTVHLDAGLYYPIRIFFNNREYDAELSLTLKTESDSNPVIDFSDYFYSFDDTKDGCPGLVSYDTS
Result string: -0.213
